Origin of the recorded values: ChEMBL document CHEMBL3045095

System: Escherichia coli
experimental-protocol: Antibacterial activity against Escherichia coli after 16 to 18 hr by serial dilution method
Type: functional
Listing of recorded MIC by entry.

{"columns": ["test-smiles", "MIC [µg/mL]"],
 "data": [
  ["CS(=O)(=O)c1ccc(Cc2n[nH]c(=S)n2/N=C/c2ccccc2F)cc1", 3.12],
  ["CC1(C)S[C@@H]2[C@H](NC(=O)Cc3ccccc3)C(=O)N2[C@H]1C(=O)O", 0.097],
  ["COc1ccc2cc(/C=N/n3c(Cc4ccc(S(C)(=O)=O)cc4)n[nH]c3=S)ccc2c1", 6.25],
  ["CS(=O)(=O)c1ccc(Cc2n[nH]c(=S)n2/N=C/c2ccc(Cl)cc2)cc1", 12.5],
  ["CS(=O)(=O)c1ccc(Cc2n[nH]c(=S)n2/N=C/c2ccc(-c3ccccc3)cc2)cc1", 3.12]
]}
